# literature pull: Dual specificity protein phosphatase 1 (Homo sapiens, UniProt P28562) pIC50
# Target under test: Dual specificity protein phosphatase 1 (Homo sapiens, UniProt P28562)
# Sequence (P28562 whole entry): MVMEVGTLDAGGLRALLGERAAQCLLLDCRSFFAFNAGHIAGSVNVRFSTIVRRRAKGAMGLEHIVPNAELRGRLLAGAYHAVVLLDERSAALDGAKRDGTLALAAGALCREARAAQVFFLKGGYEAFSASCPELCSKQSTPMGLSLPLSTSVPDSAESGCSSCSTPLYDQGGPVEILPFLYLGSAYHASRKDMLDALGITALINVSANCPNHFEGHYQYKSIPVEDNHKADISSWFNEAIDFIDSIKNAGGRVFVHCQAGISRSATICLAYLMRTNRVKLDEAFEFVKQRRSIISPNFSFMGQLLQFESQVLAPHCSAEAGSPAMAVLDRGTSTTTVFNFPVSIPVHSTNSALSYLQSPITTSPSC
pIC50: −log10 of the molar value.

Compound | pIC50
COc1ccc(Br)cc1C=c1sc2nc(-c3ccco3)nn2c1=O | 4.89
Cn1c(=O)c(C(=O)CCl)c(N)n(Cc2ccccc2)c1=O | < 4.30
Nc1c(N2CCCC2)cc(Cl)c2nonc12 | < 4.30
COC(=O)c1ccccc1NC(=O)CN1C(=O)C2CCCN2c2ncc(Cl)cc21 (stereo not given) | 4.33
O=C(O)C1Nc2c(O)cccc2C2C=CCC12 (stereo not given) | < 4.30

Fill in: pIC50 of Cc1ccc(/C=C/C2=Cc3c(sc(NC(=O)CSc4nnc(N)[nH]4)c3C#N)C(C)(C)C2)o1 is ___
5.03

What do you get for Cn1c(N)c(C(=O)COC(=O)c2cc(C(F)(F)F)nc3ccccc23)c(=O)n(C)c1=O ?
< 4.30

Now consider CC(C)Sc1nc2sc3c(c2c2nnc(SCC(=O)NCc4ccco4)n12)CCCC3 and answer again.
4.98

Try the compound Cc1cccc(N2CCN(C(=O)c3cc4c(=O)[nH]c5ccccc5c4n3C)CC2)c1C
< 4.30

How about this compound: Cn1c(=O)c(C(=O)COC(=O)c2cc(C(F)(F)F)nc3ccccc23)c(N)n(Cc2ccccc2)c1=O
< 4.30

Item: O=C1C=Cc2ccccc2/C1=C/NC12CN3CCN(CN(C3)C1)C2
< 4.30

// next record COc1ccc(-c2cn3c(C)c(C(=O)Nc4cccc(C)n4)sc3n2)cc1
< 4.30

// repeat for [O-]/[N+](=C\c1ccncc1)c1ccccc1 and report
< 4.30

Can you check Cn1c(=O)c(C(=O)COC(=O)c2cc(-c3ccco3)nc3ccccc23)c(N)n(CC2CC2)c1=O next?
4.61

And for Cn1c(=O)c2cc(S(=O)(=O)NCCC(=O)NCCC3=CCCCC3)ccc2n(C)c1=O ?
< 4.30

Then what about the compound COc1ccc(OC)c(NC(=O)CSc2nnc(Cc3cccn3C)n2CCc2ccccc2)c1 ?
< 4.30
